- measured_target: Bifunctional protein GlmU (Mycobacterium tuberculosis (strain ATCC 25618 / H37Rv))
- assay_method_text: inhibition of mycobacterial GlmU enzyme – biochemical, glucosamine-1-phosphate acetyltransferase (AID 1376);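 also: 0% = complete reaction with vehicle and 100% = reaction without substrate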
- assay_conditions: M. tuberculosis GlmU acetyltransferase enzyme assay;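 tested at 30 µM in the primary screen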
Among all 220,000 compounds or so, about 530 (0.24%) were called active. Rule as the data show it: active = inhibition above about 13%; inconclusive = no clear call, values can overlap the other calls; inactive = below that. For the sample, actives were picked, then their nearest neighbours and some compounds at random. Entries with a potency or affinity are not part of this list.
Pick from active, inactive when you respond.

INSERT INTO measurements (compound, class) VALUES
  ('COCc1cc(C)nc(SCC(=O)Nc2ccccc2C)c1C#N', 'inactive'),
  ('COCc1cc(C)nc(SCC(=O)Nc2cccc3cccnc23)c1C#N', 'active'),
  ('CCO[C@@H]1OC(C(=O)Nc2ccccc2)=C[C@H](c2ccc(Br)cc2)[C@H]1CCCO', 'inactive');

Exam item: Hey, what did the test say about COc1cccc(C2=NOC(C(=O)Nc3cc(OC)c(OC)c(OC)c3)C2)c1 (stereo not given) ?
Marked response: inactive

Exam item: State the result this test recorded for "Nc1c(C(=O)Nc2nc3ccccc3s2)sc2nc(-c3cccs3)ccc12" .
Marked response: inactive

Exam item: Call for entry "Cn1cccc1CC(=O)N/N=C/c1cccc([N+](=O)[O-])c1" :
Marked response: inactive

Exam item: Hi team, can someone confirm the assay call for "O=C(c1ccccc1)N1CCN(c2ccc([N+](=O)[O-])c(NCc3cccnc3)c2)CC1" ?
Marked response: inactive

Exam item: Each compound tested received a call. Report the one for "CC(=O)c1ccc(NC(=S)NC(=O)c2c(Cl)c(C)nn2C)cc1" .
Marked response: inactive

Exam item: Check the results log: what was the call for "NS(=O)(=O)c1cccc(NC(=O)CSc2nc3ccccc3[nH]2)c1" ?
Marked response: inactive

Exam item: Recorded test outcome, item "Cc1ccccc1C(=O)N1CCN(c2ccc([N+](=O)[O-])c(NCc3cccnc3)c2)CC1"
Marked response: active

###

- measured_target: Bifunctional protein GlmU (Mycobacterium tuberculosis (strain ATCC 25618 / H37Rv)) (UniProt P9WMN3)
- Sequence (P9WMN3 whole entry, looked up): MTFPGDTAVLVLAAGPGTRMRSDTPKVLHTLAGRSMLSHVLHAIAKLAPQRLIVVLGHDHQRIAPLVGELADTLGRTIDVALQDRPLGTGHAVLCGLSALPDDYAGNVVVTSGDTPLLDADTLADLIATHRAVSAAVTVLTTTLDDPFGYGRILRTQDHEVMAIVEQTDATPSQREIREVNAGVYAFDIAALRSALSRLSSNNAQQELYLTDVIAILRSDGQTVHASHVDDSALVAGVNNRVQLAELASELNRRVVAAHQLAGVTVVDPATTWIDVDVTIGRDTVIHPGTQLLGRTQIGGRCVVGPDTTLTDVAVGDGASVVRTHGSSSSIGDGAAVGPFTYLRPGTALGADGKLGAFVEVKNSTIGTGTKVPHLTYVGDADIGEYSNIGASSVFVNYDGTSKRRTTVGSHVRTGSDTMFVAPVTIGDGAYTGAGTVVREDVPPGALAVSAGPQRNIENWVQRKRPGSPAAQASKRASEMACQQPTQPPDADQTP
- assay_method_text: inhibition of mycobacterial GlmU enzyme – biochemical, glucosamine-1-phosphate acetyltransferase (AID 1376);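 also: 0% = complete reaction with vehicle and 100% = reaction without substrate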
- assay_conditions: M. tuberculosis GlmU acetyltransferase enzyme assay;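 tested at 30 µM in the primary screen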
Screen size: about 220,000 compounds; about 530 (0.24%) were called active. Cut-off read from the data, not from the text of the source: active = inhibition above about 13%; inconclusive = no clear call, values can overlap the other calls; inactive = below that. This is one part of a sample in which actives are shown more often than they occur. Entries with a potency or affinity are not part of this list.
Respond using exactly one of the listed classes: 1.0 = active, 0.0 = inactive

# count of solved cases: 6
INSERT INTO results (compound, class) VALUES
  ('CCc1nnc(NC(=O)c2cccc(S(=O)(=O)N3CC(c4ccccc4)CC3=O)c2)s1 (configuration not stated)', 0.0),
  ('O=C1NC(=O)N(Cc2ccccc2Cl)C(=O)/C1=C/c1cccs1', 0.0),
  ('CCn1c(C)cc(/C=C2/SC(=S)NC2=O)c1C', 0.0),
  ('Cc1nn(C)cc1/C=C1\SC(=S)NC1=O', 0.0),
  ('S=c1nc(C2CCCCC2)[nH][nH]1', 1.0),
  ('Cc1cccc(-c2c3c(=O)n(C)c(=O)n(C)c3c3cccnn23)c1', 0.0);

Exam item: Fill in: this test's call for "COc1ccc(/C=C2/C(=N)N3C(=NC2=O)Sc2cc(S(C)(=O)=O)ccc23)cc1OC" is ___
Marked response: 0.0

Exam item: Fill in: this test's call for "Cc1cc(/C=C2\SC(=S)NC2=O)c(C)[nH]1" is ___
Marked response: 1.0

###

- measured_target: Bifunctional protein GlmU (Mycobacterium tuberculosis (strain ATCC 25618 / H37Rv)) (UniProt P9WMN3)
- assay_method_text: inhibition of mycobacterial GlmU enzyme – biochemical, glucosamine-1-phosphate acetyltransferase (AID 1376);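 also: 0% = complete reaction with vehicle and 100% = reaction without substrate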
- assay_conditions: M. tuberculosis GlmU acetyltransferase enzyme assay; active compounds read high;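 tested at 30 µM in the primary screen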
Among all 220,000 compounds or so, about 530 (0.24%) were called active. Shown is part of a subset that was picked to be rich in actives. Entries with a potency or affinity are not part of this list.
property: inhibition (%)
Value expressed in %; do not type the unit.

Some compounds with known inhibition results, for comparison:
INSERT INTO assay_data (compound, unit_info, value_observed) VALUES
  ('Cc1cccc(NNC(N)=S)c1C', '%', 1.37),
  ('CC(=O)NC(CCS(C)(=O)=O)C(=O)Nc1ccccc1 (stereo unspecified)', '%', 2.39),
  ('COc1ccc(NC(=O)C(CCS(C)(=O)=O)NC(C)=O)cc1 (stereo unspecified)', '%', 18.3);

Exam item: For "COc1ccc(CCNC(=O)c2ccc3ccccc3n2)cc1OC" , write its inhibition.
Marked response: 1.59

Exam item: Return reported inhibition. Input compound: CC(=O)NC(CCS(C)(=O)=O)C(=O)Nc1ccc(Oc2ccccc2)cc1 (stereo unspecified)
Marked response: -3.46

Exam item: Read off the recorded inhibition for "O=C(O)c1ccc(Oc2c(C(F)(F)F)oc3cc(O)ccc3c2=O)cc1"
Marked response: -3.31

###

Recorded inhibition by entry
- measured_target: Bifunctional protein GlmU (Mycobacterium tuberculosis (strain ATCC 25618 / H37Rv)) (UniProt P9WMN3)
- assay_method_text: inhibition of mycobacterial GlmU enzyme – biochemical, glucosamine-1-phosphate acetyltransferase (AID 1376);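 also: 0% = complete reaction with vehicle and 100% = reaction without substrate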
- assay_conditions: M. tuberculosis GlmU acetyltransferase enzyme assay; active compounds read high;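 tested at 30 µM in the primary screen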
In all, about 220,000 compounds went through this assay and about 530 (0.24%) were called active. Only a selection was taken, and actives are over-represented in it overall. Results with a measured potency or affinity are listed apart.
// units = %; emit number, no label

Completed entries (count: 3):
INSERT INTO assay_data (compound, value_observed) VALUES
  ('Cc1cc(C)n(-c2nc(C)nc(N)n2)n1', -5.19),
  ('COc1ccc(F)cc1S(=O)(=O)Nc1ccc2c(c1)OCO2', 14.9),
  ('Cc1cc(NCC2CCCO2)n2c(nc3ccccc32)c1C#N (stereo not given)', 12.8);

Exam item: Give inhibition for the following compound: CCC(Oc1ccccc1)C(=O)NCc1ccc(S(N)(=O)=O)cc1 (stereo not given)
Marked response: 1.79

Exam item: Please list inhibition recorded for the compound "CCN(CC)C(=O)c1[nH]cnc1C(=O)N[C@@H](C)C(=O)OC(C)(C)C"
Marked response: -5.07

Exam item: Fill in inhibition for record "Cc1[nH]c2ccccc2c1C(=O)COC(=O)CCS(=O)(=O)c1ccccc1Cl"
Marked response: 0.91

###

- measured_target: Bifunctional protein GlmU (Mycobacterium tuberculosis (strain ATCC 25618 / H37Rv))
- assay_method_text: inhibition of mycobacterial GlmU enzyme – biochemical, glucosamine-1-phosphate acetyltransferase (AID 1376);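 also: 0% = complete reaction with vehicle and 100% = reaction without substrate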
- assay_conditions: M. tuberculosis GlmU acetyltransferase enzyme assay; active compounds read high;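 tested at 30 µM in the primary screen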
Among all 220,000 compounds or so, about 530 (0.24%) were called active. For the sample, actives were picked, then their nearest neighbours and some compounds at random. Measured potencies and affinities stand elsewhere.
property: inhibition (%)
Lab book: enter the figure in %, no units written.

Solved cases below.
INSERT INTO results (molecule, measured_target, property, value_observed) VALUES
  ('CCSc1nc2ccccc2c(=O)n1C1CCOC(C)(C)C1 (stereo not drawn)', 'Bifunctional protein GlmU (Mycobacterium tuberculosis (strain ATCC 25618 / H37Rv))', 'inhibition', 7.35),
  ('Cc1nc(Nc2ccccc2)sc1C(=O)Nc1ccccc1', 'Bifunctional protein GlmU (Mycobacterium tuberculosis (strain ATCC 25618 / H37Rv))', 'inhibition', 2.24);

Exam item: Lab note: record inhibition of "O=c1cc(Cl)[nH]c(=O)n1CCNc1ncc(C(F)(F)F)cc1Cl" tested on Bifunctional protein GlmU (Mycobacterium tuberculosis (strain ATCC 25618 / H37Rv)).
Marked response: -0.65

Exam item: Quote inhibition with test system Bifunctional protein GlmU (Mycobacterium tuberculosis (strain ATCC 25618 / H37Rv)) for NC(=O)c1c(NC(NC(=O)c2ccco2)C(=O)c2ccc(Cl)cc2)sc2c1CCCC2 (stereo not drawn)
Marked response: 2

Exam item: Jot down inhibition (Bifunctional protein GlmU (Mycobacterium tuberculosis (strain ATCC 25618 / H37Rv))) of "O=S(=O)(Nc1ccc(N2CCCCC2)cc1)c1ccc(F)c(F)c1" .
Marked response: 1.08

###

- measured_target: Bifunctional protein GlmU (Mycobacterium tuberculosis (strain ATCC 25618 / H37Rv)) (UniProt P9WMN3)
- assay_method_text: inhibition of mycobacterial GlmU enzyme – biochemical, glucosamine-1-phosphate acetyltransferase (AID 1376);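 also: 0% = complete reaction with vehicle and 100% = reaction without substrate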
- assay_conditions: M. tuberculosis GlmU acetyltransferase enzyme assay;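 tested at 30 µM in the primary screen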
Among all 220,000 compounds or so, about 530 (0.24%) were called active. No stated cut-off is given here; in the data, active means inhibition above about 13%; inconclusive means no clear call, values can overlap the other calls; inactive means below that. The sample holds actives, similar compounds and a random draw of the others, so the mix is not that of the screen. Entries with a potency or affinity are not part of this list.
Choose one outcome from this list and give only that: YES (active), NO (inactive)

Worked examples follow.
INSERT INTO results (compound, class) VALUES
  ('COc1ccccc1NC(=O)c1cccc(S(=O)(=O)N2CCOCC2)c1', 'NO'),
  ('O=C(O)c1ccccc1C(=O)Nc1ccc(Oc2ccccc2)cc1', 'NO');

Exam item: Hi, do you know how CC(C(=O)N=c1sc2ccccc2n1C)N1C(=O)C2CC=CCC2C1=O (stereo not given) came out in this test?
Marked response: YES

Exam item: Recorded test outcome, item "CCCSC1=N/C(=C\c2ccc([N+](=O)[O-])o2)C(=O)S1"
Marked response: YES

Exam item: // outcome(item) with item = "N/C(=N\S(=O)(=O)c1cc(C(F)(F)F)cc(C(F)(F)F)c1)c1cccs1"
Marked response: YES

Exam item: For "N#Cc1c(Nc2ccc(Cl)cc2)s[nH]c1=O" , what call appears in the results of this test?
Marked response: NO

Exam item: Tell me the assay call for "CC(C)(C)OC(=O)N/N=C/c1c[nH]c2ccccc12" please.
Marked response: NO

Exam item: I'd appreciate the recorded outcome for "COc1ccc(/C=N/c2c(-c3ccc(OC)cc3)nc3n2CCS3)cc1" from this test.
Marked response: NO
